# test-target: protein kinase C eta (Homo sapiens, UniProt P24723)
# Sequence (P24723 whole entry): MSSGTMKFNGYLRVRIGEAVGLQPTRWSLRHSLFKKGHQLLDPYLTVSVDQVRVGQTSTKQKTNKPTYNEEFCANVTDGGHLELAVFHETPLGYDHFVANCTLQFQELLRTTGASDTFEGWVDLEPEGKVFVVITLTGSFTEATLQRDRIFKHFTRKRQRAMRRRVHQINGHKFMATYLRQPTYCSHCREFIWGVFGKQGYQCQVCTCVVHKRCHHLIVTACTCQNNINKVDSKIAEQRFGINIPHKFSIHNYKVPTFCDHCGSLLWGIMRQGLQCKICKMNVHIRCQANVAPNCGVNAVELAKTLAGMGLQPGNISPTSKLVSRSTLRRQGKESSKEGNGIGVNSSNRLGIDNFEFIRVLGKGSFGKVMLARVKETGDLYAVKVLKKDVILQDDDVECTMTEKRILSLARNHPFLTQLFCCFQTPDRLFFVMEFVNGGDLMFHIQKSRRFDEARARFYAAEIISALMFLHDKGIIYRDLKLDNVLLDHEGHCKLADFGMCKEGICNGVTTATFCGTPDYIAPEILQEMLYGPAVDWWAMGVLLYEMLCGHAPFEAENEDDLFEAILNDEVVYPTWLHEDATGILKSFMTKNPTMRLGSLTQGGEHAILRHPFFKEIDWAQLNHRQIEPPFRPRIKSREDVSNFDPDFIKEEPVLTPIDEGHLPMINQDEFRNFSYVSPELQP
# test-description: PKC Enzyme assay, eta isozyme
# Type: biochemical
# condition-context: PKC eta; 30 μM ATP, 30° C., 10 minutes; read-out: IC50 η
endpoint-label: IC50 (µM)

Worked set:
CN1CCC(Cn2cc(C3=C(c4cn(C)c5ccccc45)C(=O)NC3=O)c3ccccc32)CC1 [Example 68] :: 0.11
Cn1cc(C2=C(c3cn(CCOC4C[C@H](N)[C@@H](CO)O4)c4ccccc34)C(=O)NC2=O)c2ccccc21 (stereo partly shown) [Example 63] :: 0.14

1: O=C1NC(=O)C(c2cn(CCCO)c3ccccc23)=C1c1c[nH]c2ccccc12 [Example 11]
2: Cn1cc(C2=C(c3cn(CCOC4O[C@H](CO)[C@@H](O)[C@@H](N=[N+]=[N-])[C@H]4O)c4ccccc34)C(=O)NC2=O)c2ccccc21 (stereo partly shown) [Example 59]
Problem: Given the two records 1 and 2 , choose the one whose IC50 value is lower. Please identify the chosen entry by its label.
Solution: 1
